Reported inhibition values are given for each entry in this list.
- TARGET DESC: BDNF/NT-3 growth factors receptor (Homo sapiens) (UniProt Q16620);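 further: values are the mean percent inhibition of TRKB kinase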
- Sequence (Q16620 32-822 limits assumed): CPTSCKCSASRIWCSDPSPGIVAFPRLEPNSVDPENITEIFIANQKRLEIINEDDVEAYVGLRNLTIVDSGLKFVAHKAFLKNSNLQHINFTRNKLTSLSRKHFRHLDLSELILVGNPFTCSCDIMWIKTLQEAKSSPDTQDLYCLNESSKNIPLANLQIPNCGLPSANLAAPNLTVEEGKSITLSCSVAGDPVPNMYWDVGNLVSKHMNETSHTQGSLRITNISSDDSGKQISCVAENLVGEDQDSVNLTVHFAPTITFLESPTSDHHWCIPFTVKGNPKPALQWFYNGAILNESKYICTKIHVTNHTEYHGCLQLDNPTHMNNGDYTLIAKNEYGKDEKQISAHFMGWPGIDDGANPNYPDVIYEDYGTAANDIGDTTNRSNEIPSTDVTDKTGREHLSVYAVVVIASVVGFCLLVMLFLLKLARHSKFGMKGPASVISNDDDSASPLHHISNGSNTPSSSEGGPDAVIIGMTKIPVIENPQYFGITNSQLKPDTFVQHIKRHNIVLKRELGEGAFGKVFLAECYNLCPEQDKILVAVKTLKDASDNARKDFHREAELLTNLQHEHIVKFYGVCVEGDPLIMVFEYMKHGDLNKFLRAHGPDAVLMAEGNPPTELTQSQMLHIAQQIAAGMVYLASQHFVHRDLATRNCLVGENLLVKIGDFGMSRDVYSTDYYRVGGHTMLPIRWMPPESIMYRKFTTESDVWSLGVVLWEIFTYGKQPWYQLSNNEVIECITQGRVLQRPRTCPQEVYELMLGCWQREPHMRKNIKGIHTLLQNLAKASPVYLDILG
- EXPERIMENTAL PARAMETERS: at 1 µM
READOUT NAME: inhibition (%)

>>> print(df.to_string())
                          chemical_structure  scale_unit  numeric_result
 0  O=C(Nc1n[nH]c2cc(-c3ccc(F)cc3)ccc12)C1CC1           %            5.87
 1  Fc1ccc(-c2cc(-c3c[nH]nc3-c3ccccn3)ccn2)cc1           %            4.77
 2  COC(=O)Nc1nc2ccc(Oc3ccc(NC(=O)Nc4cccc(Cl)c4)cc3)cc2[nH]1           %              22
 3  COc1cc(N2CCN(C(C)C)CC2)ccc1Nc1nc(Nc2ccc(F)cc2C(N)=O)c2cc[nH]c2n1           %            3.09
 4  CNC(=O)c1cc(-c2ccc(F)cc2)cc(-c2ccc(S(=O)(=O)N3CCCC3)cc2)c1N           %            2.48
 5  CCOc1ccc2c(-c3ccnc(Nc4cccc(C(F)(F)F)c4)n3)cnn2n1           %            2.11
 6  CC(=O)Nc1cccc(C#Cc2cncnc2Nc2ccc(OCc3cccc(F)c3)c(Cl)c2)c1           %            0.88
 7       N#Cc1c(NC(=O)c2ccc(F)cc2)sc2c1CCCC2           %            0.82
 8  Fc1cccc(COc2ccc(Nc3ncnc4sc(-c5ccco5)cc34)cc2Cl)c1           %            3.82
 9  COc1cc2ncn(-c3cc(OCc4ccccc4C(F)(F)F)c(C(=O)N(C)C)s3)c2cc1OC           %            7.43
10  CCn1cc(-c2ccnc3[nH]ccc23)c(-c2cccc(NC(=O)Nc3ccc(OCc4ccccc4)cc3)c2)n1           %           -0.53
11  CC(=O)NCc1cccc(C#Cc2cncnc2Nc2ccc(OCc3cccc(F)c3)c(Cl)c2)c1           %            2.98
12  COc1ccc2[nH]c3c4[nH]c5ccc(OC)cc5c4c4c(c3c2c1)C(=O)NC4=O           %            33.9
13  CCNC(=O)O[C@H]1CN[C@H](C#Cc2cc3ncnc(Nc4ccc(OCc5cccc(F)c5)c(Cl)c4)c3s2)C1           %             1.6
14  CCn1c(-c2nonc2N)nc2c(C#CC(C)(C)O)ncc(OC3CCNCC3)c21           %            1.02
15  c1cc(-c2cnn3nc(N4CCOCC4)ccc23)nc(NC2CC2)n1           %            1.21
16  CS(=O)(=O)CCNCc1ccc(-c2ccc3ncnc(Nc4ccc(OCc5ccccc5)c(C(F)(F)F)c4)c3c2)o1           %            2.63
17  COc1ccc(CNC(=O)c2ccc(-c3cc(-c4nnc(C)o4)ccc3C)cc2)cc1           %            4.36
18  COc1cc(Nc2nccc(Nc3ccc4c(C)n[nH]c4c3)n2)cc(OC)c1OC           %              41
